# target.entity: hFASN enzyme (full length) (Homo sapiens)
# Construct: 10 μL hFASN enzyme (full length, 300 ng, purified in house); made in house
# Sequence (P49327 whole entry): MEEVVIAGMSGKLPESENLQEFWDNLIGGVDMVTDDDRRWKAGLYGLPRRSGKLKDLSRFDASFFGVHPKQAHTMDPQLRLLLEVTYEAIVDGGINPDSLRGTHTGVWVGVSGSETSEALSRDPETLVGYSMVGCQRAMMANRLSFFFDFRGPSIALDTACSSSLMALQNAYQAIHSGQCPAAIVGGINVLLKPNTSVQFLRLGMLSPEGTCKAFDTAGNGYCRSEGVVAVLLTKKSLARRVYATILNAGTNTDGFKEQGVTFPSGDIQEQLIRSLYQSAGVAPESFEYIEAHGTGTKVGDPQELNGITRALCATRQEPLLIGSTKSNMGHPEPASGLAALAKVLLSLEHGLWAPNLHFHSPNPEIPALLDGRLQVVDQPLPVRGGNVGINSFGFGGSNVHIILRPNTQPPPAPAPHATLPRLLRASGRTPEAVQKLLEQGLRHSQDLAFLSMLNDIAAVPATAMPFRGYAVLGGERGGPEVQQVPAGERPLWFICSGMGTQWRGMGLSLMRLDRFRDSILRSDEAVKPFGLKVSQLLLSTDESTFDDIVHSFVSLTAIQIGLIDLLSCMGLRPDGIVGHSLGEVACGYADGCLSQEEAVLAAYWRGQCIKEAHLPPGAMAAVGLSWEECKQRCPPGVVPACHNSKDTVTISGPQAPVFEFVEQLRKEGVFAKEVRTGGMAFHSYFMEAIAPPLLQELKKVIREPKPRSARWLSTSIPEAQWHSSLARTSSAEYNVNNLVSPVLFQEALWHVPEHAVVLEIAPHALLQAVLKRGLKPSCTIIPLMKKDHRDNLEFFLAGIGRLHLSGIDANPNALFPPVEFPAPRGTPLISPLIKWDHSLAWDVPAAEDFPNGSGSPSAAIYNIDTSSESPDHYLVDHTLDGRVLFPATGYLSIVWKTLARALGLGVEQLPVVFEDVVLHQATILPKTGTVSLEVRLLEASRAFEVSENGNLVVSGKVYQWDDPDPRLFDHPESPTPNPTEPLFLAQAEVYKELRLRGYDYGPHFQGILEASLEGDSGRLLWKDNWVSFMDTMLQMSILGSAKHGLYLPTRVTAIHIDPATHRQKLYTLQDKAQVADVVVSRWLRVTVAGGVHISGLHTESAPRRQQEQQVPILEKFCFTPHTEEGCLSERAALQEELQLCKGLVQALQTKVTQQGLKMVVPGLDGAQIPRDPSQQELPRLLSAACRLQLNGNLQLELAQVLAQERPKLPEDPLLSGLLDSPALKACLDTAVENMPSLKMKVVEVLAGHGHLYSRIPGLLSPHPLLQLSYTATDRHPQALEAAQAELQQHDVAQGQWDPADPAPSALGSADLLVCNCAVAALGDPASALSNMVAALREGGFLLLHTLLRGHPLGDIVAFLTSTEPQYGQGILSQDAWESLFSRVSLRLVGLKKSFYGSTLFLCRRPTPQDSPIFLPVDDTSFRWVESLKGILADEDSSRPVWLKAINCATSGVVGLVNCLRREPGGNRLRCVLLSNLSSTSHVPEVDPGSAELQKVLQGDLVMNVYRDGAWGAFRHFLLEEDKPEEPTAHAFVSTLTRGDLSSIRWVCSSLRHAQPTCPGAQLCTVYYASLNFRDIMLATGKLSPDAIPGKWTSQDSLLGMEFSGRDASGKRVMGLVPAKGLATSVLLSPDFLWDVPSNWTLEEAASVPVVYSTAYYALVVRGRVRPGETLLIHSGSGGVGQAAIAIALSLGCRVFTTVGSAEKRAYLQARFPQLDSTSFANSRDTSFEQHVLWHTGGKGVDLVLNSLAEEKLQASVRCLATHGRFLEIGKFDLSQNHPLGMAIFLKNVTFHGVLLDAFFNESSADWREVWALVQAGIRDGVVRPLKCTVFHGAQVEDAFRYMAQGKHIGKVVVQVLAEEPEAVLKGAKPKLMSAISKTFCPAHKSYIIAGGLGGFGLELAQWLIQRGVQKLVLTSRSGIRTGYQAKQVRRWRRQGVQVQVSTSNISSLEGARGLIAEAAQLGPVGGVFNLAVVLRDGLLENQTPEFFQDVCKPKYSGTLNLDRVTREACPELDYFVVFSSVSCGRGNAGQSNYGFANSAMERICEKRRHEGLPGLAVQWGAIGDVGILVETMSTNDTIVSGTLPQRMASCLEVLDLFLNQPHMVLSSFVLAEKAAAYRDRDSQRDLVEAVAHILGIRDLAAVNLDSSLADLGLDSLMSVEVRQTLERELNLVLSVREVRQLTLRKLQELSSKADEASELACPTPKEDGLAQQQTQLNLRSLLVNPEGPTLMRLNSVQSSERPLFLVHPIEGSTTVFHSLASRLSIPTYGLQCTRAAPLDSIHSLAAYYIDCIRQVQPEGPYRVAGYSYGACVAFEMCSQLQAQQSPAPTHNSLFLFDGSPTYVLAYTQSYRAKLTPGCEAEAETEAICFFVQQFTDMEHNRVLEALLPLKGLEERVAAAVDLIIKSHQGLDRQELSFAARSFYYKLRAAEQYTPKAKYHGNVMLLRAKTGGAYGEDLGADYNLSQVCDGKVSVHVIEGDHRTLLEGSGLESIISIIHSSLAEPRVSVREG
# assay.remarks: Fatty Acid Synthase (FASN) inhibition scintillation proximity assay
# Type: biochemical
# settings: read-out: Human FASN % inhibition @ 10 μM, 10 μM test compound
# Procedure: In this assay, inhibition of FASN activity is measured using ^3H-acetyl-CoA and malonyl-CoA as substrates. ^3H-Acetyl CoA is converted to ^3H-palmitate through a series of reactions by the FASN protein, which contains 7 functional domains and carries out 7 enzymatic reactions to ultimately produce ^3H-palmitate. The assay principle is based upon the fact that ^3H-acetyl-CoA is hydrophilic and the end product, ^3H-palmitate is hydrophobic. […]
readout.label: inhibition at 10 µM (%)
State the answer as a number, implicitly in %.

q: Return value of inhibition at 10 µM for input "O=C(C1CC1)N1CC(CN2C(=O)C3(CC3)N=C2c2ccc(-c3ccc4c(cnn4CCO)c3)cc2F)C1" , no commentary.
a: 83

q: Return value of inhibition at 10 µM for input "Cc1cc(C2=NC3(CC3)C(=O)N2CC2CN(C(=O)C3CC3)C2)ccc1-c1ccc2[nH]ccc2c1" , no commentary.
a: 91

q: Return value of inhibition at 10 µM for input O=C([C@H]1CCCO1)N1CC[C@@H](CN2C(=O)C3(CCOC3)N=C2c2ccc(-c3ccc4occc4c3)cc2)C1 (some centres unmarked) , no commentary.
a: 99

q: Return value of inhibition at 10 µM for input "Cn1nc(CO)c2cc(-c3ccc(C4=NC5(CC5)C(=O)N4CC4CN(C(=O)C5CC5)C4)cc3)ccc21" , no commentary.
a: 97

q: Return value of inhibition at 10 µM for input "O=C(C1CC1)N1CC[C@@H](CN2C(=O)C3(CC3)N=C2c2ccc(-c3ccc4[nH]ccc4c3)cc2F)C1" , no commentary.
a: 101

q: Return value of inhibition at 10 µM for input "Cn1nc(N)c2ccc(-c3ccc(C4=NC5(CC5)C(=O)N4C[C@@H]4CCN(C(=O)C5CC5)C4)cc3)cc21" , no commentary.
a: 95

q: Return value of inhibition at 10 µM for input "O=C(C1CC1)N1CC(CN2C(=O)C3(CC3)N=C2c2ccc(-c3ccc4ccc(Cl)nc4c3)cc2)C1" , no commentary.
a: 64

q: Return value of inhibition at 10 µM for input "O=C(C1CC1)N1CC(CN2C(=O)C3(CC3)N=C2c2ccc(-c3ccc4c(Cl)ccnc4c3)cc2)C1" , no commentary.
a: 88

q: Return value of inhibition at 10 µM for input "Cc1cc(Cl)c2ccc(-c3ccc(C4=NC5(CC5)C(=O)N4CC4CN(C(=O)C5CC5)C4)cc3)cc2n1" , no commentary.
a: 53

q: Return value of inhibition at 10 µM for input "Cn1ncc2cc(-c3ccc(C4=NC5(CC5)C(=O)N4C[C@@H]4CCN(C(=O)C5CC5)C4)nc3)ccc21" , no commentary.
a: 90

q: Return value of inhibition at 10 µM for input "O=CNc1cc(-c2ccc(C3=NC4(CC4)C(=O)N3CC3CN(C(=O)C4CC4)C3)cc2)ccc1O" , no commentary.
a: 64.7

q: Return value of inhibition at 10 µM for input Cn1cc(-c2ccc(-c3ccc(C4=NC5(CCOC5)C(=O)N4CC4CN(C(=O)N5CCCC5)C4)cc3)cc2)cn1 (centres unmarked) , no commentary.
a: 59

q: Return value of inhibition at 10 µM for input "Cc1ccc(-c2ccc(-c3ccc(C4=NC5(CC5)C(=O)N4C[C@H]4CCCN(C(=O)C5CC5)C4)cc3)cc2)cc1" , no commentary.
a: 5

q: Return value of inhibition at 10 µM for input COC(=O)N1CC(CN2C(=O)C3(CCOC3)N=C2c2ccc(-c3ccc4occc4c3)cc2)C1 (centres unmarked) , no commentary.
a: -24

Cited source for all entries: patent US10077261B2
